test system: Bacillus spizizenii; assay: Antibacterial activity against Bacillus subtilis ATCC 6633 incubated for 16 hrs by broth microdilution method; format: functional; conditions: ATCC 6633, 16 h
Reported log10(MIC) by item:
Friendly reminder: values = log10 of MIC, unit µg/mL.

Examples with their reported log10(MIC) follow.
>  <smiles.entry>
COc1cc(-c2c(O)cc(OC)c(Cl)c2C)c2c(O)c3c(cc2c1)C(C)(C)c1cc(O)cc(O)c1C3=O

>  <log10(MIC)>
0.80

$$$$
>  <smiles.entry>
COc1cc(C)c(-c2cc(OC)c(Cl)c3c2C(=O)[C@@]2(O)C(=O)c4c(O)cc(O)cc4C(C)(C)[C@H]2C3)c(OC)c1

>  <log10(MIC)>
0.50

$$$$

Measured log10(MIC), COc1cc(O)c(-c2cc(O)cc3cc4c(c(O)c23)C(=O)c2c(O)cc(O)cc2C4(C)C)c(C)c1Cl : 0.50

Measured log10(MIC), COc1cc2c(c(-c3c(O)cc(OC)c(Cl)c3C)c1)C(=O)[C@@]1(O)C(=O)c3c(O)cc(O)cc3C(C)(C)[C@H]1C2 : 0.80

Measured log10(MIC), COc1cc(OC)c(-c2cc(OC)c(Cl)c3c2C(=O)[C@@]2(O)C(=O)c4c(O)cc(O)cc4C(C)(C)[C@H]2C3)c(C)c1Cl : 1.40

Measured log10(MIC), COc1cc(OC)c(-c2cc(OC)c(Cl)c3c2C(=O)[C@@]2(O)C(=O)c4c(O)cc(O)c(Cl)c4C(C)(C)[C@H]2C3)c(C)c1Cl : 0.19

Measured log10(MIC), COc1cc(C)c(-c2cc(OC)c(Cl)c3c2C(=O)[C@@]2(O)C(=O)c4c(O)cc(O)cc4C(C)(C)[C@H]2C3)c(O)c1 : 0.80

Measured log10(MIC), COc1cc(C)c(-c2cc(OC)cc3cc4c(c(O)c23)C(=O)c2c(O)cc(O)cc2C4(C)C)c(OC)c1 : 0.50

Measured log10(MIC), COc1cc(O)cc(C)c1-c1cc(O)c(Cl)c2cc3c(c(O)c12)C(=O)c1c(O)cc(O)cc1C3(C)C : 0.80

Measured log10(MIC), COc1cc(OC)c(-c2cc(OC)c(Cl)c3c2C(=O)[C@@]2(O)C(=O)c4c(cc(O)c(Cl)c4O)C(C)(C)[C@H]2C3)c(C)c1Cl : 0.50

Measured log10(MIC), COc1cc(C)c(-c2cc(O)c(Cl)c3cc4c(c(O)c23)C(=O)c2c(O)cc(OC)cc2C4(C)C)c(OC)c1 : 0.80

Measured log10(MIC), COc1cc(C)c(-c2cc(O)c(Cl)c3c2C(=O)[C@@]2(O)C(=O)c4c(O)cc(O)cc4C(C)(C)[C@H]2C3)c(O)c1 : 1.70

Measured log10(MIC), COc1cc(C)c(-c2cc(OC)c(Cl)c3c2C(=O)[C@@]2(O)C(=O)c4c(O)cc(O)c(Cl)c4C(C)(C)[C@H]2C3)c(OC)c1 : 0.50

Measured log10(MIC), NC[C@H]1O[C@H](O[C@H]2[C@H](O)[C@@H](O[C@H]3O[C@H](CO)[C@@H](O)[C@H](N)[C@H]3O)[C@H](N)C[C@@H]2N)[C@H](O)[C@@H](O)[C@@H]1O : -0.11
